Origin of values: paper PMC9320749

- System: MCF-7
observationType: SI Values (CC50/IC50)
Returns: the value as a bare number; no unit string appended.

Lookup: State the recorded SI Values (CC50/IC50) for this entry: C/C(=N\N=c1/sc(/N=N/c2ccccc2)c(C)n1N)c1cccs1
Found: 11.23

Lookup: Then CC(=O)c1sc(=NN=C(C)c2cccs2)n(N)c1C [13a] ?
Found: 14.14

Lookup: Then CCOC(=O)c1s/c(=N\N=C(/C)c2cccs2)n(N)c1C [13b] ?
Found: 8.29

Lookup: Then C/C(=N\N=c1/scc(-c2ccc(C)cc2)n1N)c1cccs1 [11b] ?
Found: 12.93

Lookup: Then CC(=NN=C1SC(=NNc2ccc(C)cc2)C(=O)N1N)c1cccs1 ?
Found: 10.99
